test system: MDA-MB-231 complex spheroids, growth inhibition; test: Anticancer human tumor MDA-MB-231 cell line growth inhibition [Asc]; conditions: second compound 1 µM; first compound 1 µM; active = viability on the fitted dose curve at most 10% of control; inactive = the rest;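 also: spheroids exposed to compounds for 7 days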
Possible outcomes: active, inactive

C=CC(=O)N1CCN(c2nc(=O)n(-c3c(C)ccnc3C(C)C)c3nc(-c4c(O)cccc4F)c(F)cc23)C(C)C1 (configuration not stated) + CNC(C)C(=O)NC1CN(S(=O)(=O)c2cccc(S(=O)(=O)N3CCC4CCC(C(=O)NC(c5ccccc5)c5ccccc5)N4C(=O)C(NC(=O)C(C)NC)C3)c2)CCC2CCC(C(=O)NC(c3ccccc3)c3ccccc3)N2C1=O: active
C=CC(=O)N1CCN(c2nc(=O)n(-c3c(C)ccnc3C(C)C)c3nc(-c4c(O)cccc4F)c(F)cc23)C(C)C1 (configuration not stated) + Cc1c(S(C)(=O)=O)c(-c2cc(F)cc(N3CCN(c4ccc(NS(=O)(=O)c5ccc(NC(CCN6CCC(C(=O)OCCCP(=O)(O)O)CC6)CSc6ccccc6)c(S(=O)(=O)C(F)(F)F)c5)cc4)CC3)c2)c(-c2ccc(Cl)cc2)n1C(C)C: inactive

====

test system: MDA-MB-231 complex spheroids, growth inhibition; test: Anticancer human tumor MDA-MB-231 cell line growth inhibition [Asc]; conditions: second compound 3 µM; first compound 1 µM; stronger effect = lower value;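 also: spheroids exposed to compounds for 7 days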
reported-property: viability, T/C (%)

C#Cc1c(F)ccc2cc(O)cc(-c3ncc4c(N5CC6CCC(C5)N6)nc(OCC56CCCN5CC(F)C6)nc4c3F)c12 (centres undefined) + CCN1C(C(=O)NC23CCC(C(=O)O)(CC2)CC3)C(c2cccc(Cl)c2F)C2(C(=O)Nc3cc(Cl)ccc32)C12CCCCC2: 47.4
CNC(C)C(=O)NC1CN(S(=O)(=O)c2cccc(S(=O)(=O)N3CCC4CCC(C(=O)NC(c5ccccc5)c5ccccc5)N4C(=O)C(NC(=O)C(C)NC)C3)c2)CCC2CCC(C(=O)NC(c3ccccc3)c3ccccc3)N2C1=O (centres undefined) + CCN1C(C(=O)NC23CCC(C(=O)O)(CC2)CC3)C(c2cccc(Cl)c2F)C2(C(=O)Nc3cc(Cl)ccc32)C12CCCCC2: 0.75
COc1c(OCCCN2CCOCC2)ccc2c3n(c(=NC(=O)c4cnc(N)nc4)nc12)CCN3 + CCN1C(C(=O)NC23CCC(C(=O)O)(CC2)CC3)C(c2cccc(Cl)c2F)C2(C(=O)Nc3cc(Cl)ccc32)C12CCCCC2: 34.1
O=C(c1cc(Cc2n[nH]c(=O)c3ccccc23)ccc1F)N1CCN(C(=O)C2CC2)CC1 + CCN1C(C(=O)NC23CCC(C(=O)O)(CC2)CC3)C(c2cccc(Cl)c2F)C2(C(=O)Nc3cc(Cl)ccc32)C12CCCCC2: 93.4

====

Tested on: MDA-MB-231 complex spheroids, growth inhibition
Test: Anticancer human tumor MDA-MB-231 cell line growth inhibition [Asc];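 also: spheroids exposed to compounds for 7 days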
Details: second compound 0.316 µM; first compound 0.00949 µM; stronger effect = lower value
Source text: Multicellular complex tumor spheroid response to apoptosis pathway targeting inhibitors Alrizomadlin, Pelcitoclax, and Dasminapant in combination with a variety of drugs and investigational agents in selected tumor cell lines […] Compounds. […] If the clinical Cmax for an agent had not been determined, the highest concentration tested was 10 microM. […]
reported-property: viability, T/C

CCN1C(C(=O)NC23CCC(C(=O)O)(CC2)CC3)C(c2cccc(Cl)c2F)C2(C(=O)Nc3cc(Cl)ccc32)C12CCCCC2 (centres undefined) + Cc1c(S(C)(=O)=O)c(-c2cc(F)cc(N3CCN(c4ccc(NS(=O)(=O)c5ccc(NC(CCN6CCC(C(=O)OCCCP(=O)(O)O)CC6)CSc6ccccc6)c(S(=O)(=O)C(F)(F)F)c5)cc4)CC3)c2)c(-c2ccc(Cl)cc2)n1C(C)C: 104%
CCN1C(C(=O)NC23CCC(C(=O)O)(CC2)CC3)C(c2cccc(Cl)c2F)C2(C(=O)Nc3cc(Cl)ccc32)C12CCCCC2 (centres undefined) + CNC(C)C(=O)NC1CN(S(=O)(=O)c2cccc(S(=O)(=O)N3CCC4CCC(C(=O)NC(c5ccccc5)c5ccccc5)N4C(=O)C(NC(=O)C(C)NC)C3)c2)CCC2CCC(C(=O)NC(c3ccccc3)c3ccccc3)N2C1=O: 0.92%
Cc1nc(N2CCC3(CC2)COC(C)C3N)c(CO)nc1Sc1ccnc(N)c1Cl (centres undefined) + Cc1c(S(C)(=O)=O)c(-c2cc(F)cc(N3CCN(c4ccc(NS(=O)(=O)c5ccc(NC(CCN6CCC(C(=O)OCCCP(=O)(O)O)CC6)CSc6ccccc6)c(S(=O)(=O)C(F)(F)F)c5)cc4)CC3)c2)c(-c2ccc(Cl)cc2)n1C(C)C: 108%
Cc1nc(N2CCC3(CC2)COC(C)C3N)c(CO)nc1Sc1ccnc(N)c1Cl (centres undefined) + CNC(C)C(=O)NC1CN(S(=O)(=O)c2cccc(S(=O)(=O)N3CCC4CCC(C(=O)NC(c5ccccc5)c5ccccc5)N4C(=O)C(NC(=O)C(C)NC)C3)c2)CCC2CCC(C(=O)NC(c3ccccc3)c3ccccc3)N2C1=O: 108%
